- System: M. mycetomatis genome strain MM55
- PROTOCOL: CLSI M38-A2 based in vitro susceptibility screening (XTT or resazurin), growth at fixed concentration
- Assay type: cell-based, Madurella mycetomatis
- PARTICULARS: Madurella mycetomatis, 100 uM, replicate 2; read-out: Percentage survival at 100um, 100 uM A
READOUT TYPE: activity at 100 µM (%)
Give bare numbers, in %.

Look over these answered cases.
Problem: What value of activity at 100 µM has been recorded for this entry: Nc1cccc(-c2nc(N)nc(NC3Cc4ccccc4C3)n2)c1 [MMV1581555]
Solution: 89

Problem: What value of activity at 100 µM has been recorded for this entry: Cc1ccc(NC(=O)c2cc(Cl)ccc2O)cc1 [MMV1578897]
Solution: 0.189

Problem: What value of activity at 100 µM has been recorded for this entry: O=C(Nc1nnc(-c2ccc(Cl)cc2)o1)c1ccc(F)cc1 [MMV1782140]
Solution: 3.75

Hi! Can you tell me activity at 100 µM for each of these molecules?
1. CC(=O)NC[C@H]1CN(c2ccc(N3CCSCC3)c(F)c2)C(=O)O1 [MMV688756]
2. NC[C@H]1O[C@H](O[C@H]2[C@H](O)[C@@H](O[C@H]3O[C@H](CO)[C@@H](O)[C@H](N)[C@H]3O)[C@H](N)C[C@@H]2N)[C@H](N)C[C@@H]1O [MMV002459]

Solution:
1. 85.2
2. 40

====

- System: M. mycetomatis genome strain MM55
- PROTOCOL: CLSI M38-A2 based in vitro susceptibility screening (XTT or resazurin), growth at fixed concentration
- Format: cell-based, Madurella mycetomatis
- PARTICULARS: Madurella mycetomatis, 100 uM, replicate 3; read-out: Percentage survival at 100um, 100 uM A (third replicate column)
Please respond with 1.0 when measured activity at 100 µM is strictly beneath 70%, and with 0.0 in all other cases.

Problem: Below 70% on activity at 100 µM? Entry N#Cc1c(F)c(Cl)c(NCc2ccccc2)c(C#N)c1F [MMV1582496]
Solution: 1.0

Problem: Below 70% on activity at 100 µM? Entry CC(C)c1cc2c(cc1S(=O)(=O)O)[C@@]1(C)CCC[C@@](C)(C(=O)O)[C@@H]1CC2 [MMV1633675]
Solution: 0.0

Problem: Below 70% on activity at 100 µM? Entry N[C@@H]1CN(c2c(F)cc3c(=O)c(C(=O)O)cn([C@@H]4C[C@@H]4F)c3c2Cl)CC12CC2 [MMV1579850]
Solution: 0.0

Problem: Below 70% on activity at 100 µM? Entry CCCCc1ccc(-c2cc(C(=O)O)cc(-c3ccc(Cl)cc3)n2)cc1 [MMV1580852]
Solution: 1.0

Problem: Below 70% on activity at 100 µM? Entry C[C@H](NC(=O)C(=O)Nc1ccccc1C(C)(C)C)C(=O)N[C@@H](CC(=O)O)C(=O)COc1c(F)c(F)cc(F)c1F [MMV1580794]
Solution: 0.0

Problem: Below 70% on activity at 100 µM? Entry CC(C)Cn1c(=O)n(C)c(=O)c2c(-c3cncn3C)n(Cc3cccc4ccccc34)nc21 [MMV1581559]
Solution: 1.0

====

- Test system: M. mycetomatis MM55
- PROTOCOL: IC50 determination, 2-fold dilution series 16 to 0.03125 μM
- Assay type: cell-based, Madurella mycetomatis
- PARTICULARS: Madurella mycetomatis, MM55; replicate 1; read-out: IC50 1
pIC50: −log10 of the molar value.
Please use rule met whenever pIC50 is not below 5, and rule not met whenever it is.

Problem: Could you tell me if the measured pIC50 of O=[N+]([O-])/C(Br)=C/c1ccc(Br)o1 reaches 5 or more?
Solution: rule not met

Problem: Could you tell me if the measured pIC50 of O=C(Nc1nnc(-c2ccc(Cl)cc2)o1)c1ccc(F)cc1 reaches 5 or more?
Solution: rule not met

Problem: Could you tell me if the measured pIC50 of CC(=O)N1CCN(c2ccc(OCC3COC(Cn4ccnc4)(c4ccc(Cl)cc4Cl)O3)cc2)CC1 (centres unmarked) [MMV637533, Ketoconazole, reference compound] reaches 5 or more?
Solution: rule met

====

Please go through the items and note down their activity at 25 µM.
- System: M. mycetomatis genome strain MM55
- PROTOCOL: CLSI M38-A2 based in vitro susceptibility screening (XTT or resazurin), growth at fixed concentration
- Type: cell-based, Madurella mycetomatis
- PARTICULARS: Madurella mycetomatis, 25 uM, replicate C, MM55; read-out: Percentage survival at 25um, 25 uM C
One number for each entry, in %.

Problem: What value of activity at 25 µM has been recorded for this entry: CCN1CCN(Cc2nc3ccc([N+](=O)[O-])cc3c(=O)n2-c2ccccc2F)CC1
Solution: 67.1

Problem: What value of activity at 25 µM has been recorded for this entry: C=CCN(C(=O)OCc1ccc([N+](=O)[O-])cc1)C1CCN(CC[C@](C)(CN(C)S(=O)(=O)c2ccccc2)c2ccccc2)CC1
Solution: 61.9

Problem: What value of activity at 25 µM has been recorded for this entry: COc1cc(C(C(=O)NC2CCCCC2)N(C(=O)Cc2c[nH]c3ccccc23)c2ccc(C(C)C)cc2)cc(OC)c1OC (stereo not shown)
Solution: 81.3

Hi! Can you tell me activity at 25 µM for each of these compounds?
1. NC(=O)C(c1ccccc1)(c1ccccc1)[C@H]1CCCN(CCc2ccc3c(c2)CCO3)C1
2. O=C(NO)C1(CS(=O)(=O)c2ccc(Oc3ccc(Cl)cc3)cc2)CCOCC1
3. COc1cc(NS(=O)(=O)c2ccc(C)cc2)c2ncccc2c1
4. Cc1nc(N(C)C(=O)Cc2ccc(-c3ccccn3)cc2)sc1S(N)(=O)=O
5. CCCCc1ccc(-c2nc(C)c(C(=O)OC)s2)cc1
6. NC(=S)N/N=C/c1ncccc1N

Solution:
70.7
69.4
14.3
49.6
65.1
59.3

Hi! Can you tell me activity at 25 µM for each of these compounds?
1. CC(C)(C)NC(=O)[C@@H]1CN(Cc2cnc3occc3c2)CCN1C[C@@H](O)C[C@@H](Cc1ccccc1)C(=O)N[C@H]1c2ccccc2C[C@H]1O
2. Cn1cncc1[C@@](N)(c1ccc(Cl)cc1)c1ccc2c(c1)c(-c1cccc(Cl)c1)cc(=O)n2C
3. CC(=O)Oc1ccccc1C(=O)Nc1ncc([N+](=O)[O-])s1
4. CNC(=O)C1O[C@@H](n2cnc3c(NCc4cccc(I)c4)nc(Cl)nc32)[C@H](O)[C@@H]1O (stereo partly shown)

Solution:
[87.6, 66.2, 131, 115]

Hi! Can you tell me activity at 25 µM for each of these compounds?
1. O=C(O)CSc1cc(NS(=O)(=O)c2cccc3cccnc23)c2ccccc2c1O
2. Nc1ccc(-c2nc3cc(C(F)(F)F)ccc3n2C23CC4CC(CC(C4)C2)C3)cc1

Solution:
88.2
54

====

- Tested on: M. mycetomatis genome strain MM55
- PROTOCOL: CLSI M38-A2 based in vitro susceptibility screening (XTT or resazurin), growth at fixed concentration
- Assay type: cell-based, Madurella mycetomatis
- PARTICULARS: Madurella mycetomatis, 100 uM, replicate 3, MM55; read-out: Percentage survival at 100um, 100 uM A
READOUT TYPE: activity at 100 µM (%)
Give bare numbers, in %.

Look over these answered cases.
Problem: What value of activity at 100 µM has been recorded for this entry: CCCCN1C[C@H](O)[C@@H](O)[C@H](O)[C@H]1CO
Solution: 82.2

Problem: What value of activity at 100 µM has been recorded for this entry: C[C@@H](NC(=O)c1cccc(-c2c[nH]c(-c3cc4ccccc4cn3)n2)c1)c1ccc(F)cc1
Solution: 58.3

Problem: What value of activity at 100 µM has been recorded for this entry: CN(O)C(=O)c1cc2c(CN3CCC[C@H]3C(N)=O)cn(Cc3ccc(F)cc3)c2cn1
Solution: 79.3

Problem: What value of activity at 100 µM has been recorded for this entry: CC(C)Nc1nc2cc(Cl)c(Cl)cc2n1[C@H]1O[C@@H](CO)[C@H](O)[C@@H]1O
Solution: 72.5

Problem: What value of activity at 100 µM has been recorded for this entry: CC(C)Oc1ccc(-n2cnc3cc(/C=C\c4ccc(C(C)(C)O)cc4)ccc32)cc1
Solution: 52.3

Hi! Can you tell me activity at 100 µM for each of these compounds?
1. Nc1ccc(-c2nc3cc(C(F)(F)F)ccc3n2C23CC4CC(CC(C4)C2)C3)cc1
2. COc1ccc(OCc2ccc(COc3c(Cl)cccc3Cl)cc2)c(Cl)c1
3. Cc1cc(CCOc2c(C)cc(-c3nnn(C)n3)cc2C)on1

Solution:
1. 59.1
2. 73.2
3. 46.2

====

Please go through the items and note down their activity at 25 µM.
- Test system: M. mycetomatis genome strain MM55
- PROTOCOL: CLSI M38-A2 based in vitro susceptibility screening (XTT or resazurin), growth at fixed concentration
- Format: cell-based, Madurella mycetomatis
- PARTICULARS: Madurella mycetomatis, read-out: Percentage survival at 25um, 25 uM B
One number for each entry, in %.

Problem: What value of activity at 25 µM has been recorded for this entry: C[C@H]1CC[C@]2(NC1)O[C@H]1C[C@H]3[C@@H]4CC[C@H]5C[C@@H](O)CC[C@]5(C)[C@H]4CC[C@]3(C)[C@H]1[C@@H]2C
Solution: 98.8

Problem: What value of activity at 25 µM has been recorded for this entry: CC[C@@]1(O)C(=O)OCc2c1cc1n(c2=O)Cc2cc3c([N+](=O)[O-])cccc3nc2-1
Solution: 102

Problem: What value of activity at 25 µM has been recorded for this entry: CCN(CC)CCCC(C)Nc1ccnc2cc(Cl)ccc12 (stereo not drawn)
Solution: 72.9

Hi! Can you tell me activity at 25 µM for each of these molecules?
1. CCCCc1ccc(C(=O)O)nc1
2. NS(=O)(=O)c1ccc(NC(=O)NC(c2ccccc2)c2ccccc2)cc1

Solution:
104
101

Hi! Can you tell me activity at 25 µM for each of these molecules?
1. Nc1nc2c(Cc3cccnc3)c[nH]c2c(=O)[nH]1
2. CC1(C)C[C@H]1C(=O)N/C(=C\CCCCSC[C@@H](N)C(=O)O)C(=O)O
3. Nc1c(C(=O)NCc2ccco2)c2nc3ccccc3nc2n1CCN1CCCCC1
4. [N-]=[N+]=N[C@H]1C[C@H](n2ccc(=O)[nH]c2=O)O[C@@H]1CO

Solution:
95.7
95.4
-3.06
107
